Test system: HCC-2998 colon
Assay: NCI tumour cell line growth inhibition, 48 h
Assignment: determine reported TGI for the given compounds.

Example entries begin here.
> print(dat)
                                   compound  readout.kind  measured.value
1          CC1=NN(c2ccccc2)C(=O)C1=C1SCCCS1           TGI        > 100 µM
2  Cc1c(N2C(=O)/C(=C\c3ccc(N(C)C)cc3)N=C2c2ccccc2)c(=O)n(-c2ccccc2)n1C           TGI        > 100 µM
3       CC(=O)/C=C/C1=C(c2ccsc2)c2ccccc2CC1           TGI         36.2 µM

Below are 7 compounds. Give each one its TGI.
1. CON
2. FC(F)(F)C1=NC(=NNc2nnc(-c3ccccc3)c(-c3ccccc3)n2)N=C(C(F)(F)F)C1
3. CCOC(=O)C1CC/C(=C(/C#N)C(=O)OC)N1 (stereo unspecified)
4. C=CCC1=CC2(OC)C(=O)C(OC)(OC)C1C1C(OC)(OC)C(=O)C(OC)=CC12CC=C (stereo unspecified)
5. COc1cccc(Nc2nccc(Nc3ccc4[nH]ncc4c3)n2)c1
6. O=P1(O)c2ccccc2CS(=O)(=O)Cc2ccccc21
7. CN(C)CCOc1nc2ccccc2c2c1-c1ccc(Cl)cc1C2=O

Result:
> 100 µM
> 88.9 µM
> 100 µM
> 100 µM
3.36 µM
> 100 µM
2.49 µM

Recorded result, `C[C@H](O)C(=O)SC[C@H](NC(=O)CC[C@@H](N)C(=O)O)C(=O)NCC(=O)O` , TGI: > 100 µM

###

Tested on: DU-145 prostate
Experiment: NCI tumour cell line growth inhibition, 48 h
Readout Kind: TGI

Example entries begin here.
> print(dat)
                                   compound      target.desc  measured.value
1   O=c1cc(-c2ccccc2Cl)[nH]c2cc3c(cc12)OCO3  DU-145 prostate       > 18.8 µM
2  Cc1cc(Br)cc(C)c1NC(=O)C(=O)C1C(=O)C(CC2C(=O)c3ccccc3C2=O)C(=O)CC1(C)C (stereo not drawn)  DU-145 prostate        > 100 µM
3       COC(=O)Nc1nc2ccc(Sc3ccccc3)cc2[nH]1  DU-145 prostate         10.8 µM
4  COc1cccc(Nc2nccc(Nc3ccc4[nH]ncc4c3)n2)c1  DU-145 prostate         2.85 µM
5         O=C(NC/C(Cl)=C/Cl)Nc1cccc2c1CCCC2  DU-145 prostate        > 100 µM

Below are 6 compounds. Give each one its TGI.
1. CCOC(=O)c1c(N2CCOCC2)[nH]c(=O)c(C(c2ccc(Cl)c([N+](=O)[O-])c2)c2c(O)c(C(=O)OCC)c(N3CCOCC3)[nH]c2=O)c1O
2. CC(C)CNc1nc(N=[N+]=[N-])nc(NCC(C)C)n1
3. Cc1onc(-c2c(F)cccc2Cl)c1C(=O)N[C@@H]1C(=O)N2[C@@H]1SC(C)(C)[C@@H]2C(=O)O
4. COc1ccc(Nc2nc3ccccc3nc2C(=O)O)cc1
5. Nc1cccc2nsnc12
6. O=C(NO)c1cnc(N2CCN(S(=O)(=O)c3ccc4ccccc4c3)CC2)nc1

Result:
1: 55.8 µM; 2: > 10 µM; 3: > 100 µM; 4: > 100 µM; 5: > 100 µM; 6: 2.23 µM

Below are 2 compounds. Give each one its TGI.
1. O=[N+]([O-])c1ccc(-c2ccccc2)c([As](=O)(O)O)c1
2. O=C1CSC(/C=C/c2ccccc2)N1c1ccc(-n2c(-c3ccccc3)nc3ccccc3c2=O)cc1 (stereo not drawn)

Result:
29 µM
> 100 µM
